Recorded values, source ChEMBL document CHEMBL1130064.

pKi: −log10 of the molar value.
This document collects pKi values reported for Nitric oxide synthase, inducible (Homo sapiens, UniProt P35228).
OUTCOME MEASURE: pKi

CCOC(=O)c1ccc(NC(=N)SCC)cc1 4.20
CCSC(=N)Nc1ccccn1 4.64
CCSC(=N)Nc1ccc(OC(F)(F)F)cc1 4.26

(I) CSC(=N)Nc1ccc(Cl)cc1
(II) CCSC(=N)Nc1ccc(C(C)C)cc1
[in] Between the entries labelled I and II , which has a larger pKi value on record? Mark your selection by writing its label.
[out] II
(II: 4.60, I: 4.38)

* * *

test: Clearance was determined; type: ADME, organism-based; conditions: in vivo
OUTCOME MEASURE: Clearance (mL/min/kg)
Field format: number, assumed mL/min/kg, no unit text.

[in] Look up Clearance for this molecule: `CCSC(=N)Nc1ccc(C(F)(F)F)cc1.Cl`
[out] 93.3

* * *

molecular target: Nitric oxide synthase, inducible (Homo sapiens); test: Percent inhibition of Human inducible Nitric Oxide Synthase (iNOS) at a concentration of 25 uM; conditions: at 25 µM
Sequence (P35228 whole entry): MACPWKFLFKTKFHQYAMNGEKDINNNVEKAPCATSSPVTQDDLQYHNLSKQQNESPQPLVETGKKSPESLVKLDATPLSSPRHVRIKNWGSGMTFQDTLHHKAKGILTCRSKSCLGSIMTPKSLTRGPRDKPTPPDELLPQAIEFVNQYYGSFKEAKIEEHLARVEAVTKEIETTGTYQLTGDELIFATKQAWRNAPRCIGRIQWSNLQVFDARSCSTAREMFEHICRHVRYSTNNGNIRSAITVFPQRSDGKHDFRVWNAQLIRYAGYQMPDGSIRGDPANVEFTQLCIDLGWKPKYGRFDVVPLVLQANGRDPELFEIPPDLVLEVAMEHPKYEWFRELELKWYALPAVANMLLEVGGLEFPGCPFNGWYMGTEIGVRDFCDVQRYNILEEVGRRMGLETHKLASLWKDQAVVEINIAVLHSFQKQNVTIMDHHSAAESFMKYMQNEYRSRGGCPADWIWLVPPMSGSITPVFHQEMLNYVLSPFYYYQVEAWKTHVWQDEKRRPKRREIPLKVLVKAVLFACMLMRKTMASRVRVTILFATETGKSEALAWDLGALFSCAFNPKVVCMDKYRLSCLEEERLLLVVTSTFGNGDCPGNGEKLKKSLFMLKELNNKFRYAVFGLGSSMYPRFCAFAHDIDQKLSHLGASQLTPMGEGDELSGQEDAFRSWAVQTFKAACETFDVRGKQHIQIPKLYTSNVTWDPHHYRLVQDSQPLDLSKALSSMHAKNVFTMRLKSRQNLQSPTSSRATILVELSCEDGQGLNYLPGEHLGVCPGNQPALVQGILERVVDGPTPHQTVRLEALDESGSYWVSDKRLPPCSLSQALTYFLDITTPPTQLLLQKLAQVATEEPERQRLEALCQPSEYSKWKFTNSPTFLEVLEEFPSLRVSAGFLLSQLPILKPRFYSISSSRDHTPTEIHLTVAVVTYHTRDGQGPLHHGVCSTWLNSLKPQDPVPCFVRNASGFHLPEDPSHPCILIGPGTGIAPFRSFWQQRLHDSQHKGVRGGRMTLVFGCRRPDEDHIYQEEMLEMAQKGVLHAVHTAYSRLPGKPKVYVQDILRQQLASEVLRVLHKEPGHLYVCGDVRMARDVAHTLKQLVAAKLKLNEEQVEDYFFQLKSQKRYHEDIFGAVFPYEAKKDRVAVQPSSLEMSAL
OUTCOME MEASURE: inhibition (%)

Below are worked cases with known answers.
CSC(=N)Nc1ccc([N+](=O)[O-])cc1 0
CCSC(=N)Nc1ccc(C(=O)O)cc1 0
CSC(=N)Nc1ccc(C(F)(F)F)cc1 0
CC(C)SC(=N)Nc1ccc(C(F)(F)F)cc1 0
CCCCSC(=N)Nc1ccc(C(F)(F)F)cc1 0

(a) CCCSC(=N)Nc1ccc(C(F)(F)F)cc1
(b) N=C(Nc1ccc(C(F)(F)F)cc1)SCc1ccccc1
[in] Of the pair a and b , name the member with the lesser recorded inhibition. # respond with the chosen item's label
[out] b
(b: 0%, a: 4%)

* * *

assay: The half life was determined; assay type: ADME; details: read-out: T1/2 beta
OUTCOME MEASURE: half-life (min)
Return type: number; implicit unit min.

[in] Suppose we examine the compound `CCSC(=N)Nc1ccc(C(F)(F)F)cc1.Cl` ; what half-life value has been reported?
[out] 31

* * *

molecular target: Nitric oxide synthase 1 (Homo sapiens)
Sequence (P29475 whole entry): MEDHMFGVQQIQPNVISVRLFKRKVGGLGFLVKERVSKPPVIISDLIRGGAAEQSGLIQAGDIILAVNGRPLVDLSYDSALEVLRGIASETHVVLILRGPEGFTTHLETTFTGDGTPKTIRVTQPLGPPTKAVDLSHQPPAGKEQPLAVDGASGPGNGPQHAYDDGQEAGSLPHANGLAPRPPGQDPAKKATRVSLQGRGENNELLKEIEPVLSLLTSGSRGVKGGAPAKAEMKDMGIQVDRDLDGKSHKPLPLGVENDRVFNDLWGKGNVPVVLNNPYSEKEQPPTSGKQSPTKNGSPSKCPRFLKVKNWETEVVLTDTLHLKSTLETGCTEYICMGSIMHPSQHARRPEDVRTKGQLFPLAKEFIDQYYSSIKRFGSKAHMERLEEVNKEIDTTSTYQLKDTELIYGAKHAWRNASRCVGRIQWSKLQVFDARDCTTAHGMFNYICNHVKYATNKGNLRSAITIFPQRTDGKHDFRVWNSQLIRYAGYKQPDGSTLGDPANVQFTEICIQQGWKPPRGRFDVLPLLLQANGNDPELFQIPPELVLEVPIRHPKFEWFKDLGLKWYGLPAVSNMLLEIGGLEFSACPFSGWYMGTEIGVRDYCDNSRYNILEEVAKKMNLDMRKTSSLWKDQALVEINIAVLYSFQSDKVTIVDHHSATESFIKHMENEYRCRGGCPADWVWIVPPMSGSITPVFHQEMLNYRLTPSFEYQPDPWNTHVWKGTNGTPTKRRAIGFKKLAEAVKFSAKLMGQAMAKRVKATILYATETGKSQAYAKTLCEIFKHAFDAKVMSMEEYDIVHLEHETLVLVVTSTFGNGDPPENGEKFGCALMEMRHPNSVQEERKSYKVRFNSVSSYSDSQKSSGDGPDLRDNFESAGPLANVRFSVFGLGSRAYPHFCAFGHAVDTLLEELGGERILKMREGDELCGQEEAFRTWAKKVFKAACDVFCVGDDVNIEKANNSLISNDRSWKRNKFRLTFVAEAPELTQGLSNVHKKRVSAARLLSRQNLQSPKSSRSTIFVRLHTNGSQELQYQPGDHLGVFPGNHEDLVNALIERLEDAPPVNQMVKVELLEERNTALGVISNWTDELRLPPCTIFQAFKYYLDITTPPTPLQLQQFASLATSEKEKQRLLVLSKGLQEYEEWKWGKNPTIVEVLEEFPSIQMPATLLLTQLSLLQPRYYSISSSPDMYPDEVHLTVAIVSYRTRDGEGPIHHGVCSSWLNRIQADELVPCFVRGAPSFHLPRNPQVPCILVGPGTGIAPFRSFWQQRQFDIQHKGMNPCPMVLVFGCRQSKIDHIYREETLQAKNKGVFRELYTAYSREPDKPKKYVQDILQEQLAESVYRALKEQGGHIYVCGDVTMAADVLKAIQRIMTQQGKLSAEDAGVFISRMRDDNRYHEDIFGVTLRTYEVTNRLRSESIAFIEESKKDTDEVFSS
pKi: −log10 of the molar value.
OUTCOME MEASURE: pKi

Recorded results for 3 molecules are shown here.
CCSC(=N)Nc1ccncc1 6.10
CCCSC(=N)Nc1ccc(C(F)(F)F)cc1 4.19
CCSC(=N)Nc1ccc([N+](=O)[O-])cc1 6.18

(a) CCSC(=N)Nc1ccc(OC(F)(F)F)cc1
(b) CCSC(=N)Nc1ccc(C(=O)O)cc1
[in] I'm curious, which of these has a smaller pKi number: a or b ? API: response body contains the label of the selected item.
[out] b
(b: 4.24, a: 6.15)

* * *

Target: Nitric oxide synthase 3 (Homo sapiens) (UniProt P29474)
Sequence (whole entry): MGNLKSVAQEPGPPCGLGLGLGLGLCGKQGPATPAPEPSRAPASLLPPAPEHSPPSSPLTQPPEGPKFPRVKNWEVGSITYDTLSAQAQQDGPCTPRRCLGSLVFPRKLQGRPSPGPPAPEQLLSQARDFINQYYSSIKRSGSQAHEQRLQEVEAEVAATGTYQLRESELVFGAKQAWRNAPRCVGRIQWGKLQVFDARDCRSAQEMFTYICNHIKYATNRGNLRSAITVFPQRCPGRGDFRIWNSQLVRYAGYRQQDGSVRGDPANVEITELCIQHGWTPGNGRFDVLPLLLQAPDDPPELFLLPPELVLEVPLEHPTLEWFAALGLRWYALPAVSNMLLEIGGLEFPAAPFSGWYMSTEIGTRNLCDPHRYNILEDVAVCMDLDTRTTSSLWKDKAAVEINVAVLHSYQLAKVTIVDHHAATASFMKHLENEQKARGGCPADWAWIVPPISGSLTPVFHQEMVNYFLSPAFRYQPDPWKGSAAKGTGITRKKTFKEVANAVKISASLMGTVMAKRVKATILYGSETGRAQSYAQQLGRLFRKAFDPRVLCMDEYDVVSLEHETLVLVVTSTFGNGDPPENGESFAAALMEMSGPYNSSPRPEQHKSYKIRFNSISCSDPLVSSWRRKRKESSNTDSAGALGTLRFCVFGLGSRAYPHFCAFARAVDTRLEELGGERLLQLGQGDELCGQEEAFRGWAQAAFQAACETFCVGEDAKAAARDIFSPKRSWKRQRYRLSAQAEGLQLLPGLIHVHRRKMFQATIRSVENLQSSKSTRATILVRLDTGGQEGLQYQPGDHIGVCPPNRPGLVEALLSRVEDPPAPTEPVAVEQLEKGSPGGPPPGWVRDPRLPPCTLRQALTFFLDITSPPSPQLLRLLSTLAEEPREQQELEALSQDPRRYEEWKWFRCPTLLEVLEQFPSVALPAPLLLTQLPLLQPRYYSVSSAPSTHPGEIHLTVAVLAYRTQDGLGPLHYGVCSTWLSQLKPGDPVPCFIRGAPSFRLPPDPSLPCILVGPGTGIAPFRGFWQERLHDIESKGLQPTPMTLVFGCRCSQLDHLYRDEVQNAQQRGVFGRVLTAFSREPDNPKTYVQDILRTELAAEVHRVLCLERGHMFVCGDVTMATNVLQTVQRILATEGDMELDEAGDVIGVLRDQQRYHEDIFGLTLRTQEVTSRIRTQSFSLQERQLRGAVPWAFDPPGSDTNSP
Experiment: Percent inhibition of human Vascular Endothelial nitric oxide synthase at a concentration of 25 uM
Settings: at 25 µM
OUTCOME MEASURE: inhibition (%)

Illustrative cases are given below, each with its answer.
CC(C)SC(=N)Nc1ccc(C(F)(F)F)cc1 0
CCCCSC(=N)Nc1ccc(C(F)(F)F)cc1 0

(P) CCCSC(=N)Nc1ccc(C(F)(F)F)cc1
(Q) CCSC(=N)Nc1ccc(C(=O)O)cc1
[in] Parameter metric = inhibition. Return the lower-valued option from P and Q . Answer by stating the label of the chosen item.
[out] P
